- Test System: T1, Human CD33 (human, UniProt P20138 18-364)
- T1 construct: One molecule is used for recombinant CD33 on HEK293AD/293 cells and for endogenous human CD33 on tumor or myeloid cells; the cell is named under assay; also called huCD33; hu CD33
- T1 sequence (P20138 18-364): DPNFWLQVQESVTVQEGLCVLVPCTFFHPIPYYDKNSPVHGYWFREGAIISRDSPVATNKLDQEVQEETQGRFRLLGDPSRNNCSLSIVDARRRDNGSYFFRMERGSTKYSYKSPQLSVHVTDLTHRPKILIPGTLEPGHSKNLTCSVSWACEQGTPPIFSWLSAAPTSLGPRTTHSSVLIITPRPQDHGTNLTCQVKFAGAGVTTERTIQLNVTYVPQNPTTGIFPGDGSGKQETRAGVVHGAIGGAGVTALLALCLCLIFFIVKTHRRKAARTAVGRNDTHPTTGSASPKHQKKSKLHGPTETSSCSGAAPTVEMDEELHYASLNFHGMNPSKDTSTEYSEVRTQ
- Assay Procedure: Scatchard analysis, [125I]-labeled antibody competed by unlabeled antibody, HEK293AD cells stably expressing human CD33
Kd values by entry
Respond numerically; units are nM and should not be typed.

* 27C6 (antibody, V domains shown) VH: EVQLQQSGPELVKPGASVKVSCKASGYAFTSYNMYWVKQSHGKSLEWIGYIDPYNGGTRHNQKFKDKATLTVDKSSSTAYMHLNSLTSEDSAVYYCASQNYEYFDYWGQGTTLTVSS VL: DIVLTQSPKFMSTSVGDRVSITCKASQDVGDAVAWYQQKPGQSPKLLFYWTSTRHTGVPDRFTGSGSGTEFTLTIRNVQSEDLADYFCQQYRSTPLTFGSGTKVEIK | 13.4

Proceed to the following item.
Documented Kd of 9C3 (antibody, V domains shown, atypical N-linked glycosylation site in the heavy chain between CDR2 and CDR3 at position 69 (kabat #)) VH: EVQLVESGGALIQPGGSLRLSCVASGFTISGNYMSWVRQAPGKGLEWVSLIYSGDSTYYADSVKGRFNISRDISKNTVYLQMNSLRVEDTAVYYCVRDGYYVSDMVVWGKGTTVTVSS VL: DIQMTQSPSSLSASVGDRVTITCRASQGIRNDLGWYQQKPGKAPKRLIYAASSLQSGVPSRFSGSGSGTEFTLTISSLQPEDFATYYCLQHNSYPWTFGQGTKLEIK : 0.8
